- tested.target: UniProtKB P29274
- Sequence (P29274 whole entry): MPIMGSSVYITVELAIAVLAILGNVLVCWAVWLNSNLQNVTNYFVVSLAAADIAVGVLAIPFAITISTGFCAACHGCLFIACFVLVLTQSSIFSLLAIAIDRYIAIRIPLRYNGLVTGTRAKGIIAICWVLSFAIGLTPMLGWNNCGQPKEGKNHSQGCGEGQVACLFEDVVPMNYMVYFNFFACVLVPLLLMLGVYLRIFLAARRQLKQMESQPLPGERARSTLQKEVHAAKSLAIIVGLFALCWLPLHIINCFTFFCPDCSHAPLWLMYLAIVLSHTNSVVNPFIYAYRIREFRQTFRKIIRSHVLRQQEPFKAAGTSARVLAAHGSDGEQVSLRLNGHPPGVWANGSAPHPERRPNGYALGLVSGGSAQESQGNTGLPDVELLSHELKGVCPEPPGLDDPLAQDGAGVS
- test: Displacement of [3H]MSX2 from recombinant human adenosine A2a receptor expressed in HEK293 cells
So I've got a bunch of compounds here, and I need their Ki values.
Numbers only, in µM.

COc1ccc(Cl)c(CN2CCCn3c2nc2c3c(=O)n(C)c(=O)n2C)c1F	0.627

// input: 3 compounds below; output: Ki for each
1. Cn1c(=O)c2c(nc3n2CCCN3Cc2cccc(Br)c2)n(C)c1=O
2. Cn1c(=O)c2c(nc3n2CCN3Cc2ccccc2Br)n(C)c1=O
3. Cn1c(=O)c2c(nc3n2CCCN3CCc2cccnc2)n(C)c1=O

Solution:
[1.7, 0.887, 3.04]

----------
- tested.target: Amine oxidase [flavin-containing] A (Homo sapiens)
- Sequence (P21397 whole entry): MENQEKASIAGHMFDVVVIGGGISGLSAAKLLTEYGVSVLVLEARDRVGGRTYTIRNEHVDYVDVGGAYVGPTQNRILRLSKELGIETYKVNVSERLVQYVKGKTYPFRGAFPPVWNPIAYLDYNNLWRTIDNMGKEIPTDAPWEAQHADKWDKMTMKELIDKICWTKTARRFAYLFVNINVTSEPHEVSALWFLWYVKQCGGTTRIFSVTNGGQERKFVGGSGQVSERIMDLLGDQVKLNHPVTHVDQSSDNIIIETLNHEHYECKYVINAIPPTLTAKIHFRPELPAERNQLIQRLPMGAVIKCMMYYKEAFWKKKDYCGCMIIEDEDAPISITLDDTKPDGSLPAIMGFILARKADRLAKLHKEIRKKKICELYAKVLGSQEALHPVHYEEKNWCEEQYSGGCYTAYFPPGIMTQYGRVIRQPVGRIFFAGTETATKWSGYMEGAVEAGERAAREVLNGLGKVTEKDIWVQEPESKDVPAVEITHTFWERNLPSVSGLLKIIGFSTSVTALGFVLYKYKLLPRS
- test: Inhibition of recombinant human MAOA expressed in baculovirus infected BTI insect cells using p-tyramine as substrate preincubated for 30 mins followed by substrate addition and measured over 45 mins by horseradish peroxidase-Amplex Red-coupled fluorometric assay
pIC50: −log10 of the molar value.
readout.type: pIC50

COc1ccc(Cl)c(CN2CCCn3c2nc2c3c(=O)n(C)c(=O)n2C)c1F	< 4.00
Cn1c(=O)c2c(nc3n2CCCN3Cc2cccc(Br)c2)n(C)c1=O	< 6.00
COc1ccccc1CN1CCn2c1nc1c2c(=O)n(C)c(=O)n1C	< 6.00
COc1ccc(CN2CCCn3c2nc2c3c(=O)n(C)c(=O)n2C)cc1Cl	< 4.00

State the recorded pIC50 for every item in the following list.
1. Cn1c(=O)c2c(nc3n2CCCCN3Cc2ccc(Cl)cc2Cl)n(C)c1=O
2. Cn1c(=O)c2c(nc3n2CCCN3Cc2ccc(Br)cc2F)n(C)c1=O
3. COc1ccccc1CN1CCCCn2c1nc1c2c(=O)n(C)c(=O)n1C
4. Cn1c(=O)c2c(nc3n2CCCCN3Cc2ccc(F)c(Br)c2)n(C)c1=O
5. Cn1c(=O)c2c(nc3n2CCN3Cc2ccc(Cl)cc2)n(C)c1=O
6. Cn1c(=O)c2c(nc3n2CCCCN3Cc2ccccc2Cl)n(C)c1=O
7. Cn1c(=O)c2c(nc3n2CCCCN3Cc2ccccc2F)n(C)c1=O

Solution:
< 6.00
< 6.00
< 6.00
< 6.00
< 6.00
< 6.00
< 6.00

Please state, for each entry, its recorded pIC50.
1. Cn1c(=O)c2c(nc3n2CCCN3Cc2ccc(Cl)c(F)c2)n(C)c1=O
2. Cn1c(=O)c2c(nc3n2CCCN3Cc2ccc(F)c(Br)c2)n(C)c1=O

Solution:
< 4.00
< 6.00

Please supply pIC50 for each of the following items, keeping them in order.
1. Cn1c(=O)c2c(nc3n2CCCCN3Cc2ccccc2Br)n(C)c1=O
2. Cn1c(=O)c2c(nc3n2CCN3Cc2ccccc2Br)n(C)c1=O
3. Cn1c(=O)c2c(nc3n2CCCCN3Cc2ccc(Cl)cc2)n(C)c1=O
4. Cn1c(=O)c2c(nc3n2CCN3Cc2ccc(F)c(Br)c2)n(C)c1=O
5. Cn1c(=O)c2c(nc3n2CCCN3Cc2c(F)cccc2Cl)n(C)c1=O
6. Cn1c(=O)c2c(nc3n2CCCCN3Cc2cccc(Br)c2)n(C)c1=O
7. Cn1c(=O)c2c(nc3n2CCN3Cc2cccc(Br)c2)n(C)c1=O
8. Cn1c(=O)c2c(nc3n2CCCN3Cc2ccc(Cl)c(C(F)(F)F)c2)n(C)c1=O

Solution:
1: < 6.00; 2: < 6.00; 3: < 6.00; 4: < 6.00; 5: < 4.00; 6: < 6.00; 7: < 6.00; 8: < 6.00

Problem: # return recorded pIC50 for input Cn1c(=O)c2c(nc3n2CCCN3Cc2ccc(Cl)cc2F)n(C)c1=O
Solution: < 6.00
